FYI, the data here is from patent US9980943B2.

tested on: β-galactosidase in CMV-LacZ C2C12 myotubes; assay: CMV-LacZ secondary screen in C2C12 myotubes (β-Gal stabilizing assay); type: cell-based, mouse; details: 40 uM; SU9516 analogs, C2C12 CMV-LacZ, N=2
property-label: CMV-LACZ in Myotubes, value relative to DMSO

>>> df
                                   compound  assay_value
0         Cc1ccccc1/C=C1\C(=O)Nc2ccc(F)cc21       1.0063
1  C=CCOc1ccc(C(=O)/C=C2/C(=O)Nc3ccccc32)cc1       1.4482
2  CCN(CC)CCNC(=O)c1c(C)[nH]c(/C=C2\C(=O)Nc3ccc(F)cc32)c1C [NCGC00164631-03]       0.7680
3  Cc1[nH]c(/C=C2\C(=O)Nc3ccc(S(=O)(=O)Cc4c(Cl)cccc4Cl)cc32)c(C)c1C(=O)C1CCCN1CN1CCCC1 (centres unmarked)       7.0800
4   CCOc1cc2c3c(c1)C(C)=CC(C)(C)N3C(=O)C2=O       1.1380
5  COc1cc(OC)c(/C=C2/C(=O)Nc3ccccc32)c(OC)c1       1.0700
6               CCO/C(C)=C1\C(=O)Nc2ccccc21       0.9950
7     Cc1ccc2c(c1)/C(=C/c1ccc(F)cc1)C(=O)N2       1.0847

====

system: β-galactosidase in CMV-LacZ C2C12 myotubes; experiment: CMV-LacZ secondary screen in C2C12 myotubes (β-Gal stabilizing assay); assay type: cell-based, mouse; conditions: 10 uM; CMV-LacZ C2C12 myotubes; 96-well format
Note to self: use 1 only for CMV-LACZ in Myotubes (β-galactosidase activity relative to DMSO) readings below 0.9; a reading exactly at 0.9 still gets 0.

>>> df
                                   compound                         system_under_test  category_label
0  COc1ccc(C(=O)N/C(=C/c2cccnc2)C(=O)N2CCN(C)CC2)cc1OC [MLS001140657-01]  β-galactosidase in CMV-LacZ C2C12 myotubes               0
1  Cc1cccc(OCc2nc(C#N)c(N3CCCC3)o2)c1 [MLS000332693-01]  β-galactosidase in CMV-LacZ C2C12 myotubes               0
2  Cc1ccc(-c2csc(Nc3ccc(C(=O)O)cc3)[n+]2Cc2ccccc2)cc1 [MLS000374261-01]  β-galactosidase in CMV-LacZ C2C12 myotubes               1
3  O=C(Nc1ccccc1)Nc1ccc(Cl)c(S(=O)(=O)N2CCOCC2)c1 [MLS000773700-01]  β-galactosidase in CMV-LacZ C2C12 myotubes               0
4  COc1cccc(N2C(=O)CC(N3CCc4ccccc4C3)C2=O)c1 (centres unmarked) [MLS000769322-01]  β-galactosidase in CMV-LacZ C2C12 myotubes               0
5  COc1ccc(S(=O)(=O)N2CCN(C(=O)C3CCC3)CC2)cc1 [MLS001139515-01]  β-galactosidase in CMV-LacZ C2C12 myotubes               1
6  NC(=O)c1nsc(C(=O)N(c2ccccc2)C(C(=O)NCc2ccc(F)cc2)c2ccc(O)cc2)c1N (centres unmarked) [MLS001219621-01]  β-galactosidase in CMV-LacZ C2C12 myotubes               0
